All figures here come from ChEMBL document CHEMBL1201862.

- System: TK-10
- TEST DESCRIPTION: NCI tumour cell line growth inhibition, 48 h
Active and inactive are the calls of the source. No stated cut-off is given here; in the data, active = GI50 up to about 1.1 µM and inactive = higher.
Outcomes: active, inactive

[[record]]
compound = "O=C(O)c1ccc(C(=O)Nc2cccc3ccccc23)c(C(=O)O)c1"
classification = "inactive"

[[record]]
compound = "CCOC(=O)C1S/C(=N\\c2ccc(C)c(C)c2)N=C1C (stereo unspecified)"
classification = "inactive"

[[record]]
compound = "O=C1NC(c2c(Cl)cccc2Cl)Nc2ccccc21 (stereo unspecified)"
classification = "inactive"

[[record]]
compound = "CC(C)N(C(C)C)S(=O)(=O)CC12CCC(C/C1=N\\O)C2 (stereo unspecified)"
classification = "inactive"

[[record]]
compound = "COc1ccccc1Cn1c2c(c3cc(O)ccc31)C(=O)c1ccccc1C2=O"
classification = "inactive"

[[record]]
compound = "COc1ccc(C(=O)C(C(=O)C(=O)NCCCNC(=O)C(=O)C(C(=O)c2ccc(OC)cc2)c2ccc(OC)cc2)c2ccc(OC)cc2)cc1 (stereo unspecified)"
classification = "inactive"

[[record]]
compound = "COc1cc(C2c3cc4c(cc3OC(NCCO)C2C)OCO4)cc(OC)c1OC (stereo unspecified)"
classification = "inactive"

[[record]]
compound = "COc1cc(CCN(C)C)cc(OC)c1OC"
classification = "inactive"

[[record]]
compound = "Cc1cccc(NC(=O)CC(=O)N2N=C(N(CCC#N)c3ccc(Cl)cc3)CC2c2ccccc2)c1 (stereo unspecified)"
classification = "inactive"

[[record]]
compound = "C1=C2/CC[C@H](Sc3ccccc3)[C@H]2C2(CCCCC/1)OCCO2"
classification = "inactive"

[[record]]
compound = "CCOC(=O)CCC(=O)C1c2cccc(O)c2C(=O)c2c(O)cc(C)cc21 (stereo unspecified)"
classification = "inactive"

[[record]]
compound = "Brc1cc2c(cc1C1SCCS1)OCO2"
classification = "inactive"

[[record]]
compound = "CC(=O)N1N=C(N)CC1=O"
classification = "inactive"

[[record]]
compound = "N#CI1OC(C(F)(F)F)(C(F)(F)F)c2ccccc21"
classification = "inactive"

[[record]]
compound = "CC(NP(=O)(c1ccccc1)c1ccccc1)c1ccccc1 (stereo unspecified)"
classification = "inactive"

[[record]]
compound = "CCN(CC)CCn1ncc2c3c(=O)c4cccnc4n(CCN(CC)CC)c3ccc21"
classification = "inactive"

[[record]]
compound = "C=C(Cl)C(Cl)(CBr)CCC(Cl)C(C)C (stereo unspecified)"
classification = "inactive"

[[record]]
compound = "CC[C@H]1C=CCC[C@@]2(C[C@@H]3CC[C@@H]4[C@H](C(=O)OCCCCCCCCCCCCCCCC(=O)O)[C@]5(CCC[C@@H](C)O5)NC(=[N+]34)N2)O1"
classification = "active"

[[record]]
compound = "COC(=O)C1(CCCCCBr)CCCCCCCCCCC1=O (stereo unspecified)"
classification = "inactive"

[[record]]
compound = "Nc1cc2c(c3ccccc13)C(CCl)CN2C(=O)c1cc2cc(NC(=O)c3cc4ccccc4o3)ccc2[nH]1 (stereo unspecified)"
classification = "active"

[[record]]
compound = "N#Cc1c2c(c(Cl)n3c1nc1ccccc13)CCCC2"
classification = "inactive"

